Below, each entry is listed alongside its reported t½.
- measured_target: T1, mouse IL-25 expressed with a C-terminal myc-myc-hexahistidine tag (mouse)
- T1 construct: also called Mouse IL-25-MMH; mIL-25-MMH
- T1 chain: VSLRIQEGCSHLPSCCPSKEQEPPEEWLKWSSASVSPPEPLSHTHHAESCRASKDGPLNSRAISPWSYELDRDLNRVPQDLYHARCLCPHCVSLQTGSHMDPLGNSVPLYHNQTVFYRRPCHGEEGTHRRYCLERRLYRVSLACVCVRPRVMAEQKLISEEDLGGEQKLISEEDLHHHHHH
- measurement_description: SPR Biacore, antibody captured, 25C
Only the number, expressed in h, is required.

Using the record for H4H10905P (antibody, human IgG4, V domains shown, H4H prefix = human IgG4 Fc) VH: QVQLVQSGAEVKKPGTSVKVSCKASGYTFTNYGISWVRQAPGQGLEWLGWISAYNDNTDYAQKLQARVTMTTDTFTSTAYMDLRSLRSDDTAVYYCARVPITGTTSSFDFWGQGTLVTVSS VL: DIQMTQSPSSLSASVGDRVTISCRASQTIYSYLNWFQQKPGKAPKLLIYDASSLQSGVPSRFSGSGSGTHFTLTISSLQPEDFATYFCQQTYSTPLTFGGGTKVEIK , report its t½.
1.33

More entries:
Fill in: t½ of H4H10876P (antibody, human IgG4, V domains shown, H4H prefix = human IgG4 Fc) VH: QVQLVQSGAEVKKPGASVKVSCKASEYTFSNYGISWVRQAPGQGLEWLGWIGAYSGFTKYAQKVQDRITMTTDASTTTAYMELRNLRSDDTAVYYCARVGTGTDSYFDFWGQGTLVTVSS VL: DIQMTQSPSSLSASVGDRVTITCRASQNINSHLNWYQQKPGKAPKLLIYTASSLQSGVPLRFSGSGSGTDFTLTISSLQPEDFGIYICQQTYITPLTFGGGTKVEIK is ___
1.95

// t½ lookup, key: H4H10871P (antibody, human IgG4, V domains shown, H4H prefix = human IgG4 Fc) VH: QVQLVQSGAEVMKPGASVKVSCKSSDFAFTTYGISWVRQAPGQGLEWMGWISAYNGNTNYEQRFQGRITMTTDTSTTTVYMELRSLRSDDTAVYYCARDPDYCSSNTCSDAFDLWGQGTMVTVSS VL: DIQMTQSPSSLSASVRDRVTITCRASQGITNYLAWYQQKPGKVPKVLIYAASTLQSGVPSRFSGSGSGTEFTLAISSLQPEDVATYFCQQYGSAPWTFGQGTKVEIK
1.73

Consider the binder H4H10907P (antibody, human IgG4, V domains shown, H4H prefix = human IgG4 Fc) VH: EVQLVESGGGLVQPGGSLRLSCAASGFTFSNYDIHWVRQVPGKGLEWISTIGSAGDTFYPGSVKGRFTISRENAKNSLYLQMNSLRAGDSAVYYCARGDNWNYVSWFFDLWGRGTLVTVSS VL: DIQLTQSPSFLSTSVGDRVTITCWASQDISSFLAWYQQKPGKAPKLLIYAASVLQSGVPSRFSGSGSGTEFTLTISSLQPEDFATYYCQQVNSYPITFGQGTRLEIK and give its measured t½.
0.0167

I am curious: what t½ value has been reported for H4H10897P (antibody, human IgG4, V domains shown, H4H prefix = human IgG4 Fc) VH: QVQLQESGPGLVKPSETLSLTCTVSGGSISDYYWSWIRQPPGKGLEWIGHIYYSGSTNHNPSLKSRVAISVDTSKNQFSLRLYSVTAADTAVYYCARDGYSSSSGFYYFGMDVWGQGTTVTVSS VL: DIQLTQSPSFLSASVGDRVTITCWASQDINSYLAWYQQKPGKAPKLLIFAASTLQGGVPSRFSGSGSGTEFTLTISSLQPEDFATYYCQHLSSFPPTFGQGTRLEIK ?
0.183

Can you share its t½? I mean this binder: H4H10863P (antibody, human IgG4, V domains shown, H4H prefix = human IgG4 Fc) VH: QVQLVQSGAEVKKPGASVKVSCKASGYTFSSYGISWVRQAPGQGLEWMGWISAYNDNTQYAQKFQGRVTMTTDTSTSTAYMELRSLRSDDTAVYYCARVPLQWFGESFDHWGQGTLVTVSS VL: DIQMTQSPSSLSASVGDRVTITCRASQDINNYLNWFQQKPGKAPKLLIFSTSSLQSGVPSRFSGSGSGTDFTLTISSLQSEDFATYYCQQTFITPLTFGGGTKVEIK
1.3
